Here, molecules appear alongside Ki reported for the protein given by its sequence in the literature.
Sequence of the target: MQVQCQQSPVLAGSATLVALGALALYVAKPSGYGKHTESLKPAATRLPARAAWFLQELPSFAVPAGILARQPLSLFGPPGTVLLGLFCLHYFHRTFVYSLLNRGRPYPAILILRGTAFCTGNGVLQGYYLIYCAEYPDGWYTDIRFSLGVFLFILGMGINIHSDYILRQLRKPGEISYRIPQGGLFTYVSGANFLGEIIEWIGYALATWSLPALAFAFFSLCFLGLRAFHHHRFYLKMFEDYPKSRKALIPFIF

Q. Given the entry `O=C(O)c1ccc2c(c1)Cc1ccccc1-2` , report its measured Ki.
A. 10000 nM

Q. Now consider `O=C(O)c1ccc2c(c1)CCc1ccccc1-2` and answer again.
A. 10000 nM

Q. Now consider `C[C@]12CCC(C(=O)O)=CC1=CCc1cc(Cl)ccc12` and answer again.
A. 260 nM

Q. Now consider CC(C)N(C(=O)[C@H]1CCC2C3CC[C@H]4C=C([N+](=O)[O-])CC[C@]4(C)C3CC[C@@]21C)C(C)C (stereo partly specified) and answer again.
A. 50 nM

Q. Now consider `O=C(O)c1ccc2c(c1)CCc1cc(Br)ccc1-2` and answer again.
A. 10000 nM

Q. Now consider CN1C(=O)CCC2(C)c3ccc(Cl)cc3CCC12 (stereo unspecified) and answer again.
A. > 5000 nM

Q. Now consider COc1ccc2c(c1)CC=C1C=C(C(=O)O)CCC12C (stereo unspecified) and answer again.
A. > 2500 nM

Q. Now consider CC(C)CC(=O)[C@H]1CCC2C3CNC4=CC(=O)CC[C@]4(C)C3CC[C@@]21C (stereo partly specified) and answer again.
A. 0.08 nM

Q. Now consider CN1C(=O)CC[C@]2(C)c3ccc(Cl)cc3CCC12 (stereo partly specified) and answer again.
A. > 1000 nM

Q. Now consider COc1cccc2c1CC=C1C=C(C(=O)O)CCC12C (stereo unspecified) and answer again.
A. 1600 nM

Q. Now consider `COc1cccc2c1CC[C@H]1[C-]([N+]#N)C(=O)CC[C@]21C` and answer again.
A. 2000 nM
